Collected binding signal values appear next to each entry.
Biological target: T1, UNK ZnF1-3 (human, UniProt Q9C0B0 31-174)
T1 sequence: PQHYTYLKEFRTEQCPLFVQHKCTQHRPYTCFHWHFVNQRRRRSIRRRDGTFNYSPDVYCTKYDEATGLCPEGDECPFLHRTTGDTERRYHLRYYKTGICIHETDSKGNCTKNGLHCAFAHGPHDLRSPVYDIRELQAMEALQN
Assay: nsRBNS (natural sequence RNA bind-n-seq); RBNS binding buffer (assumed for nsRBNS): 25 mM Tris pH 7.5, 150 mM KCl, 3 mM MgCl2, 0.01% Triton X-100, 500 ug/ml BSA, 20 U/ml SUPERase-In, 4 C; UNK is unkempt and MSI1 is Musashi-1; names of the RNAs are library labels; protein concentration not given here; high values mean tight binding
Over roughly 24,000 sequences, “enrichment r” has its median near 0.99; the highest 2% begin near 3.7. The list is a sample of the results.
Unit enrichment R implied. Number only.

# Binder, Unit Descriptor, binding signal
data = [
    ("chr6:82862619:82862620:-_ENSMUSG00000000627_ENSMUST00000000641|mus_mus|FALSE|FALSE (ssRNA) RNA: GGGAGUUCUACAGUCCGACGAUCAACCUGCUUGUAAUUUCCUACACACUUUUCUGGGUUCCUUUUGUCAUCCCUCAAUAGCUAGAAUGUUGUGAAGUUCAUUUUAAAUGGAAGCCAAGGAAAGAGGGCUCAGCCUCCACUCCACAACAGAGGAUUGAGCAUCA", "enrichment R", 0.841),
]

Incoming: Hello, please tell me recorded binding signal for this one: 138058577_138059462_3783_3pUTR_ENSMUSG00000041642_ENSMUST00000075164|mouse|control|control (ssRNA) RNA: GGGAGUUCUACAGUCCGACGAUCGGCCAGGGACUUGGUGAUGUUCUUGGUAGAGCUGUCCAAUGGGGGUCCUAGGCACUCCGCAGACACGGCCUUCAUCUGUGCGGAUAGCUUGGGCUCACCCUUGAACUUGAAGUCAUCGUGCAACAGAGGAUUGAGCAUCA
Outgoing: 0.657

Incoming: Return binding signal (reported value) for this binder: 224577001_224577121_2655_3pUTR_ENSG00000162923_ENST00000295024|human|control|control (ssRNA) RNA: GGGAGUUCUACAGUCCGACGAUCCGGGCAAGGCUAGAAUCCAUGAACCAAGCUGCAAAGAUCUCAAGCUAAAUAAGGCGGAAAGAUUUGGAGAAACAAAAGAAGGAAAUUCUUUCCUAUCCAAUGUAUACUCUUCAGACUAAUCAACAGAGGAUUGAGCAUCA
Outgoing: 1.48
